The measurements presented in this section are drawn from ChEMBL document CHEMBL4359915.

# Tested on: Cryptococcus neoformans
# Procedure text: Antifungal activity against Cryptococcus neoformans ATCC 32719 assessed as fluconazole MIC after 24 hrs in presence of fluconazole by two-dimensional broth microdilution checkboard assay
# Format: functional
# Condition info: ATCC 32719, 24 h
// MIC lookup, one value per entry
# value in µM; strip the unit string

Examples from the recorded data:
>  <Smiles string>
COc1ccc(NC(=O)[C@H](O)[C@@H](O)C(=O)N2CCC3(CCNC3=O)CC2)cc1

>  <Observed>
26

$$$$
>  <Smiles string>
O=C(Nc1ccc(Cl)cc1)[C@H](O)[C@@H](O)C(=O)N1CCC2(CCNC2=O)CC1

>  <Observed>
52

$$$$
>  <Smiles string>
O=C(Nc1ccc(F)c(Cl)c1)[C@H](O)[C@@H](O)C(=O)N1CCC2(CCNC2=O)CC1

>  <Observed>
104

$$$$

Now turn to the next compound.
Per the records, this compound ( `O=C(Nc1cc(C(F)(F)F)cc(C(F)(F)F)c1)[C@H](O)[C@@H](O)C(=O)N1CCC2(CCNC2=O)CC1` ) has MIC equal to 52

###

# System: Proteus vulgaris
# Procedure text: Antibacterial activity against Bacillus proteus ATCC 8427 assessed as growth inhibition measured after 24 hrs by two-fold broth dilution method
# Type: functional
# Condition info: ATCC 8427, 24 h
Readout name: MIC
Write your answer as a measured quantity: the number, then the unit.

Examples from the recorded data:
>  <Compound>
O=C(Nc1ccccc1F)[C@H](O)[C@@H](O)C(=O)N1CCC2(CCNC2=O)CC1

>  <MIC>
670 µM

$$$$
>  <Compound>
O=C(Nc1cccc(Br)c1)[C@H](O)[C@@H](O)C(=O)N1CCC2(CCNC2=O)CC1

>  <MIC>
290 µM

$$$$
>  <Compound>
COc1ccccc1NC(=O)[C@H](O)[C@@H](O)C(=O)N1CCC2(CCNC2=O)CC1

>  <MIC>
330 µM

$$$$
>  <Compound>
Cc1ccccc1NC(=O)[C@H](O)[C@@H](O)C(=O)N1CCC2(CCNC2=O)CC1

>  <MIC>
680 µM

$$$$
>  <Compound>
O=C(Nc1ccccc1)[C@H](O)[C@@H](O)C(=O)N1CCC2(CCNC2=O)CC1

>  <MIC>
1420 µM

$$$$

Per the records, this compound ( `COc1ccc(NC(=O)[C@H](O)[C@@H](O)C(=O)N2CCC3(CCNC3=O)CC2)cc1` ) has MIC equal to 330 µM

Per the records, this compound ( `O=C(Nc1ccc(F)c(Cl)c1)[C@H](O)[C@@H](O)C(=O)N1CCC2(CCNC2=O)CC1` ) has MIC equal to 310 µM

Per the records, this compound ( `O=C(Nc1cccc(C(F)(F)F)c1)[C@H](O)[C@@H](O)C(=O)N1CCC2(CCNC2=O)CC1` ) has MIC equal to 150 µM

Per the records, this compound ( CN[C@@H]1[C@H](O[C@H]2[C@H](O[C@H]3[C@H](O)[C@@H](O)[C@H](N=C(N)N)[C@@H](O)[C@@H]3N=C(N)N)O[C@@H](C)[C@]2(O)C=O)O[C@@H](CO)[C@H](O)[C@H]1O [STREPTOMYCIN] ) has MIC equal to 14 µM

###

# Test system: Candida tropicalis
# Procedure text: Inhibition of Candida tropicalis ATCC 750 chitin synthase at 300 ug/ml using UDP-GlcNAc as substrate relative to control
Readout name: inhibition (%)
# value in %; strip the unit string

Examples from the recorded data:
>  <Smiles string>
Cc1ccc(NC(=O)[C@H](O)[C@@H](O)C(=O)N2CCC3(CCNC3=O)CC2)cc1

>  <Tested target>
Candida tropicalis

>  <inhibition [%]>
48.7

$$$$
>  <Smiles string>
O=C(Nc1ccc(F)c(Cl)c1)[C@H](O)[C@@H](O)C(=O)N1CCC2(CCNC2=O)CC1

>  <Tested target>
Candida tropicalis

>  <inhibition [%]>
70.6

$$$$

Now turn to the next compound.
Per the records, this compound ( `Cc1ccccc1NC(=O)[C@H](O)[C@@H](O)C(=O)N1CCC2(CCNC2=O)CC1` ) has inhibition equal to 49.8
